// data source = PubChem BioAssay (NCI)

# Test system: LOX IMVI melanoma
# test.details: NCI tumour cell line growth inhibition, 48 h
property: TGI (µM)
Reply numerically in µM, unit not repeated.

## Input Entry `C=C(C)[C@@H]1CC[C@]2(C(=O)NS(=O)(=O)c3ccccc3)CC[C@]3(C)[C@H](CC[C@@H]4[C@@]5(C)CC[C@H](OC(=O)NS(=O)(=O)c6ccccc6)C(C)(C)[C@@H]5CC[C@]43C)[C@@H]12` has what TGI?
## Output 3.06

## Input Entry `Clc1ccc(/C(=C/c2ccccc2)Cn2ccnc2)cc1` has what TGI?
## Output 91.1

## Input Entry `COc1cc(/C=N/N=C(\N)NO)c([N+](=O)[O-])cc1OC` has what TGI?
## Output 83.5

## Input Entry CC[C@]12C=CCN3CCC4(c5cc([C@@]6(C(=O)OC)CC7CN(CCc8c6[nH]c6ccccc86)CC6CCCCC67)c(OC)cc5N(C)C4[C@](O)(C(=O)OC)C1OC(C)=O)[C@@H]32 (some centres not stated) has what TGI?
## Output 6.46

## Input Entry `NC(=O)c1ccc[n+](C2=C([O-])c3ccccc3C(=O)/C2=N\S(=O)(=O)c2ccccc2)c1` has what TGI?
## Output 29.5

## Input Entry `Cc1cc(O)c(-c2ccc([C@@H](C)CN(C)C)cc2)c2c1[nH]c(=O)c1sccc12` has what TGI?
## Output 27.5

## Input Entry CCCn1cc2c3c(cccc31)C1C=C(C)CN(C)C1C2 (configuration not stated) has what TGI?
## Output 39.8
